Origin of values: patent US20260242478A1

Could you please report measured Phage binding ELISA, Anti-PSMA Fab signal in the presence of PSMA for the items listed next?
biological target: T1, Anti-PSMA Fab (SEQ ID NOs: 19, 20); assay: phage ELISA; biotinylated PSMA Fab on neutravidin plate pre-incubated with PSMA antigen (competitor), anti-M13 HRP detection
T1 construct: In the phage ELISA the Fab was biotinylated and captured on neutravidin coated plates; also called 006 PSMA Fab
Where no end group is shown, it is not given here.
// return a plain number; no unit text

[ask] Return Phage binding ELISA, Anti-PSMA Fab signal in the presence of PSMA (reported value) for this binder: NFHLCTPQWMCTGF (cysteine pairing not given here; also: displayed as fusion to phage pIII, Peptide-180 library clone) [Phage-1997]
[reply] 0.0973

[ask] Return Phage binding ELISA, Anti-PSMA Fab signal in the presence of PSMA (reported value) for this binder: HEMWCRPAWMCDGF (cysteine pairing not given here; also: displayed as fusion to phage pIII, Peptide-180 library clone) [Phage-2000]
[reply] 0.0635

[ask] Return Phage binding ELISA, Anti-PSMA Fab signal in the presence of PSMA (reported value) for this binder: HPKWCTPAWMCVML (cysteine pairing not given here; also: fused to phage pIII, pIII sequence and linker not given here, Peptide-180 library clone) [Phage-2008]
[reply] 0.0691

[ask] Return Phage binding ELISA, Anti-PSMA Fab signal in the presence of PSMA (reported value) for this binder: FEKWCVPIWMCRDS (cysteine pairing not given here; also: displayed as fusion to phage pIII, Peptide-180 library clone) [Phage-2003]
[reply] 0.161

[ask] Return Phage binding ELISA, Anti-PSMA Fab signal in the presence of PSMA (reported value) for this binder: EFVKCVPAWMCEWT (cysteine pairing not given here; also: fused to phage pIII, pIII sequence and linker not given here, Peptide-180 library clone) [Phage-2009]
[reply] 0.0768

[ask] Return Phage binding ELISA, Anti-PSMA Fab signal in the presence of PSMA (reported value) for this binder: IDKWCIPAWMCVSN (cysteine pairing not given here; also: displayed as fusion to phage pIII, Peptide-180 library clone) [Phage-1998]
[reply] 0.0815

[ask] Return Phage binding ELISA, Anti-PSMA Fab signal in the presence of PSMA (reported value) for this binder: VTKWCIPEWMCEYI (cysteine pairing not given here; also: fused to phage pIII, pIII sequence and linker not given here, Peptide-180 library clone) [Phage-2005]
[reply] 0.0658

[ask] Return Phage binding ELISA, Anti-PSMA Fab signal in the presence of PSMA (reported value) for this binder: DTHMCRPLWMCTGL (cysteine pairing not given here; also: fused to phage pIII, pIII sequence and linker not given here, Peptide-180 library clone) [Phage-2011]
[reply] 0.0778

[ask] Return Phage binding ELISA, Anti-PSMA Fab signal in the presence of PSMA (reported value) for this binder: IPKWCTPAWMCESM (cysteine pairing not given here; also: displayed as fusion to phage pIII, Peptide-180 library clone) [Phage-1999]
[reply] 0.0609
